biological target: α-amylase from porcine pancreatic (Sus scrofa, UniProt P00690); assay: In vitro α-amylase inhibition assay; assay type: biochemical; conditions: read-out: IC50 ± SEM Alpha-amylase; porcine pancreatic α-amylase, starch
Sequence (P00690 16-511): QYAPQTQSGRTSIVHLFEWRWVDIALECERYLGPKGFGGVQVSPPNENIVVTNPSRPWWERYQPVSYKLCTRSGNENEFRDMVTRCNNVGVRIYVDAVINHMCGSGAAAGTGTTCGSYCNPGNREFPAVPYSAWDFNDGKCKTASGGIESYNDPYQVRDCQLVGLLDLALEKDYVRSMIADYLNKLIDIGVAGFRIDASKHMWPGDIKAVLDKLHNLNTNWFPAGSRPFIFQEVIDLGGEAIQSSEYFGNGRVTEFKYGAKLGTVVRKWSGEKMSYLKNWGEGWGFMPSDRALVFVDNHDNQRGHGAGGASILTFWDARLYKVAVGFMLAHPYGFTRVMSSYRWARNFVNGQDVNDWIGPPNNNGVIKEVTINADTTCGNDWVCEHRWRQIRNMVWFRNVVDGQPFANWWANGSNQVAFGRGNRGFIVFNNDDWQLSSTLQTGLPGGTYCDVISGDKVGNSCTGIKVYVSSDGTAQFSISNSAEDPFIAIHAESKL

- SMILES STRUCTURE: "O=C1Nc2ccc(Cl)cc2/C1=N/NS(=O)(=O)c1ccc([N+](=O)[O-])cc1"
  IC50 (µM): 12.3

----------
Recorded pIC50, one value per entry.
molecular target: α-amylase from porcine pancreatic (Sus scrofa, UniProt P00690); assay: In vitro α-amylase inhibition assay; assay type: biochemical
pIC50: −log10 of the molar value.
QUANTITY: pIC50

- SMILES STRUCTURE: "O=C1Nc2ccc([N+](=O)[O-])cc2/C1=N/NS(=O)(=O)c1ccc([N+](=O)[O-])cc1"
  SYSTEM UNDER TEST: "α-amylase from porcine pancreatic (Sus scrofa, UniProt P00690)"
  QUANTITY: "pIC50"
  MEASURED RESULT: 4.88
- SMILES STRUCTURE: "Cc1ccc([N+](=O)[O-])cc1S(=O)(=O)N/N=C1\\C(=O)Nc2ccccc21"
  SYSTEM UNDER TEST: "α-amylase from porcine pancreatic (Sus scrofa, UniProt P00690)"
  QUANTITY: "pIC50"
  MEASURED RESULT: 4.88
- SMILES STRUCTURE: "O=C1Nc2ccccc2/C1=N/NS(=O)(=O)c1ccc([N+](=O)[O-])cc1"
  SYSTEM UNDER TEST: "α-amylase from porcine pancreatic (Sus scrofa, UniProt P00690)"
  QUANTITY: "pIC50"
  MEASURED RESULT: 4.88
- SMILES STRUCTURE: "Cc1ccc([N+](=O)[O-])cc1S(=O)(=O)N/N=C1\\C(=O)Nc2ccc(Cl)cc21"
  SYSTEM UNDER TEST: "α-amylase from porcine pancreatic (Sus scrofa, UniProt P00690)"
  QUANTITY: "pIC50"
  MEASURED RESULT: 4.83
- SMILES STRUCTURE: "Cc1ccc([N+](=O)[O-])cc1S(=O)(=O)N/N=C1\\C(=O)Nc2ccc([N+](=O)[O-])cc21"
  SYSTEM UNDER TEST: "α-amylase from porcine pancreatic (Sus scrofa, UniProt P00690)"
  QUANTITY: "pIC50"
  MEASURED RESULT: 4.88
